Experimental System: human CD33 R291A (human, UniProt P20138 18-364)
Sequence (P20138 18-364 R291A limits assumed): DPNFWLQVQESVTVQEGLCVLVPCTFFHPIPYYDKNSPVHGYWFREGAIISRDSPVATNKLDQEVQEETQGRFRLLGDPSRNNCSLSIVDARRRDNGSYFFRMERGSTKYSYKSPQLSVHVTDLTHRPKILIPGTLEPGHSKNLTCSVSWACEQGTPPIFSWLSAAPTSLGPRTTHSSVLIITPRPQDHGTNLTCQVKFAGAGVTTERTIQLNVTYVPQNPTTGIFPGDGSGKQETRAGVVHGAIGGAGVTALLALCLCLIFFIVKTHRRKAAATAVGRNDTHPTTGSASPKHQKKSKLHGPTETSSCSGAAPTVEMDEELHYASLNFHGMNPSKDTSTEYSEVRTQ
Protocol Details: alanine scan, flow cytometry, HEK293-T;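 note: antibody binding to each alanine-substituted CD33 mutant expressed transiently in HEK293-T, read as fluorescence minus background, mean of duplicates, relative to wild-type CD33 set as 100%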
Assay Readout: Mean % WT Binding (% WT binding)

Binder: Refmab #1 (antibody, V domains shown, The alanine scan used IgG or Fab; also called hP67.6) VH: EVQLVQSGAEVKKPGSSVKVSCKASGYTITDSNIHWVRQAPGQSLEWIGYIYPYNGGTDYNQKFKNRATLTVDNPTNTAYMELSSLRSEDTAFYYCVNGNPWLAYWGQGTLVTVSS VL: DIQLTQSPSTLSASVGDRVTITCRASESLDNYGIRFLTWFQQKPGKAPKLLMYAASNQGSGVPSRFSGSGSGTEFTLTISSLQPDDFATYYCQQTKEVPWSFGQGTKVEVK
Assay Readout: Mean % WT Binding
Obs Value: 97.8

Binder: Refmab #3 (antibody, V domains shown, The alanine scan used IgG or Fab) VH: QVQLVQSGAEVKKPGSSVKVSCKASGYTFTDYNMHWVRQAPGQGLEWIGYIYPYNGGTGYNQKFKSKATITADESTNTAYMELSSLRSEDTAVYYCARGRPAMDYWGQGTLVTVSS VL: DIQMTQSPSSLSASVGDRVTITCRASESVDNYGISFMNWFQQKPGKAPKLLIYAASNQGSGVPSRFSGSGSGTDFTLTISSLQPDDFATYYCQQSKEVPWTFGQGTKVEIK
Assay Readout: Mean % WT Binding
Obs Value: 97.5

Binder: Refmab #2 (antibody, V domains shown, The alanine scan used IgG or Fab) VH: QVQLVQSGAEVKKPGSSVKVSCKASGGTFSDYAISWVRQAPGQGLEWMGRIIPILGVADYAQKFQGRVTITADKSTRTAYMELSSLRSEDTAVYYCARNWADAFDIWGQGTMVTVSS VL: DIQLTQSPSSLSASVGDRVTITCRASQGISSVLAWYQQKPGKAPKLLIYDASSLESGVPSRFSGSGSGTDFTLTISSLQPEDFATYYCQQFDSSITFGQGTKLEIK
Assay Readout: Mean % WT Binding
Obs Value: 122
